Reference for the values: patent US20070142411A1

Listing of recorded IC50 by entry.
Molecular target: human COX-2 (Homo sapiens, UniProt P35354)
Construct: expressed in transfected cells; host or cells: COS cells (stably transfected)
Sequence (P35354 18-604): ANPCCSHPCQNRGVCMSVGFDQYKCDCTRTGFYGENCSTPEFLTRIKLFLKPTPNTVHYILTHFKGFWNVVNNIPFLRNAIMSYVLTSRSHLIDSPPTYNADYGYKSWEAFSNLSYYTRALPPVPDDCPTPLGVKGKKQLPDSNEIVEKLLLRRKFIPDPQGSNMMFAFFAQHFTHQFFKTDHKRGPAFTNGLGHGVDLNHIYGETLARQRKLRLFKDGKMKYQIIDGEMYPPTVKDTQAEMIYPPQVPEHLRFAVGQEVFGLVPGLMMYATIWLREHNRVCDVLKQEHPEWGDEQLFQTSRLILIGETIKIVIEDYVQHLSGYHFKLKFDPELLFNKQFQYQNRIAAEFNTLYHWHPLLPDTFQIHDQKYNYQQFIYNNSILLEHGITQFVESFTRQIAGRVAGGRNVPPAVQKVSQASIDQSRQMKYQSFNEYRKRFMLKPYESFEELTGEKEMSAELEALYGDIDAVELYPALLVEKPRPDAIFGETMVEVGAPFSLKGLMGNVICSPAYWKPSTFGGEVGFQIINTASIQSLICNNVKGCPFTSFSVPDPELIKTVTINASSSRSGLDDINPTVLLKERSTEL
Assay: Inhibition of PGE2 release in COS cells stably transfected with human COX-2
Type: cell-based
Conditions: COS cells transfected with human COX-2, 30 μM arachidonic acid

[[record]]
smi = "CCOc1ccc(-c2nn3ncccc3c2-c2ccc(S(N)(=O)=O)cc2)cc1"
recorded_value = "0.44 nM"

[[record]]
smi = "CS(=O)(=O)c1ccc(-c2cc(C(F)(F)F)nc(Oc3ccc(F)cc3)n2)cc1"
recorded_value = "< 1 nM"

[[record]]
smi = "COc1ccc(Oc2nc(-c3ccc(S(C)(=O)=O)cc3)cc(C(F)(F)F)n2)cc1"
recorded_value = "4 nM"

[[record]]
smi = "CCOc1ccc(-c2nn3ncccc3c2-c2ccc(S(C)(=O)=O)cc2)cc1"
recorded_value = "3 nM"


Pending compound:
Indicate its recorded IC50; the compound in question is `CS(=O)(=O)c1ccc(-c2c(-c3ccc(F)cc3)nn3nc(S(C)(=O)=O)ccc23)cc1`
370 nM
